Values from ChEMBL document CHEMBL4433217

Molecular target: Peroxisome proliferator-activated receptor alpha (Homo sapiens) (UniProt Q07869)
Test: Transactivation of GAL4-tagged human PPARalpha LBD expressed in human HepG2 cells at 100 nM to 100 uM incubated for 20 to 22 hrs by luciferase reporter gene assay relative to clofibric acid
Assay type: cell-based
Recorded Endpoint: Emax
// return the numeric value with its unit appended

Before answering, review these 3 worked examples.
CC(C)(Oc1ccc(CCOc2ccc(/N=N/c3ccc(Br)cc3)cc2)cc1)C(=O)O = 71%
CC(C)(Oc1ccc(CCOc2ccc(/N=N/c3ccccc3)cc2)cc1)C(=O)O = 56%
CC(C)(Oc1ccc(OCCc2ccc(/N=N/c3ccc(Br)cc3)cc2)cc1)C(=O)O = 35%

Now for a further compound.
Looking up CC(C)(Oc1ccc(CCOc2ccc(/N=N/c3ccc(C#N)cc3)cc2)cc1)C(=O)O , I see its Emax listed as 25%

* * *

Target: Peroxisome proliferator-activated receptor alpha (Homo sapiens, UniProt Q07869)
Sequence (Q07869 whole entry): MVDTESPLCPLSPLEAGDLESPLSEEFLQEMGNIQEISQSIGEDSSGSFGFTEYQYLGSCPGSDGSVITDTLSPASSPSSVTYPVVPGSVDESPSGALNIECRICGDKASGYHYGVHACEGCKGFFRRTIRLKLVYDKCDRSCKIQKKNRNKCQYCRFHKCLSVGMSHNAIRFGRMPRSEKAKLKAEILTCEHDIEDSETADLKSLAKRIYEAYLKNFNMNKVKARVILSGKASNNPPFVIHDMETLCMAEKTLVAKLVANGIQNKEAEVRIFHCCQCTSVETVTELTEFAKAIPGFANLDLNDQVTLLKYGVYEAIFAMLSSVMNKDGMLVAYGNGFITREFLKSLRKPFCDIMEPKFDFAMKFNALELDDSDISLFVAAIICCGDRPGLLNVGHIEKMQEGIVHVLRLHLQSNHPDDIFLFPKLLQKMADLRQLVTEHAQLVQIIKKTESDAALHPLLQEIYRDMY
Assay: Transactivation of GAL4-tagged human PPARalpha LBD expressed in human HepG2 cells at 100 nM to 100 uM incubated for 20 to 22 hrs by luciferase reporter gene assay
pEC50: −log10 of the molar value.
So basically: pEC50 at 6 or higher? That is MET. Lower than 6? That is NOT MET.

CC(C)(Oc1ccc(CCOc2ccc(/N=N/c3ccc(Cl)cc3)cc2)cc1)C(=O)O = MET
CC(C)(Oc1ccc(OCCc2ccc(/N=N/c3ccccc3)cc2)cc1)C(=O)O = MET
CC(C)(Oc1ccc(CCOc2ccc(/N=N/c3ccccc3)cc2)cc1)C(=O)O = NOT MET
COc1ccc(/N=N/c2ccc(OCCc3ccc(OC(C)(C)C(=O)O)cc3)cc2)cc1 = NOT MET
CC(C)(Oc1ccc(OCCc2ccc(/N=N/c3ccc(C(F)(F)F)cc3)cc2)cc1)C(=O)O = NOT MET
CC(C)(Oc1ccc(OCCc2ccc(/N=N/c3ccc(Cl)cc3)cc2)cc1)C(=O)O = MET

Query: Kindly determine if pEC50 recorded for CC(C)(Oc1ccc(CCOc2ccc(/N=N/c3ccc(C(F)(F)F)cc3)cc2)cc1)C(=O)O is above or exactly 6.
Reply: NOT MET

Query: Kindly determine if pEC50 recorded for CC(C)(Oc1ccc(CCOc2ccc(/N=N/c3ccc(C#N)cc3)cc2)cc1)C(=O)O is above or exactly 6.
Reply: NOT MET

Query: Kindly determine if pEC50 recorded for CC(C)(Oc1ccc(OCCc2ccc(/N=N/c3ccc(Br)cc3)cc2)cc1)C(=O)O is above or exactly 6.
Reply: NOT MET

* * *

Target: Peroxisome proliferator-activated receptor gamma (Homo sapiens, UniProt P37231)
Sequence (P37231 whole entry): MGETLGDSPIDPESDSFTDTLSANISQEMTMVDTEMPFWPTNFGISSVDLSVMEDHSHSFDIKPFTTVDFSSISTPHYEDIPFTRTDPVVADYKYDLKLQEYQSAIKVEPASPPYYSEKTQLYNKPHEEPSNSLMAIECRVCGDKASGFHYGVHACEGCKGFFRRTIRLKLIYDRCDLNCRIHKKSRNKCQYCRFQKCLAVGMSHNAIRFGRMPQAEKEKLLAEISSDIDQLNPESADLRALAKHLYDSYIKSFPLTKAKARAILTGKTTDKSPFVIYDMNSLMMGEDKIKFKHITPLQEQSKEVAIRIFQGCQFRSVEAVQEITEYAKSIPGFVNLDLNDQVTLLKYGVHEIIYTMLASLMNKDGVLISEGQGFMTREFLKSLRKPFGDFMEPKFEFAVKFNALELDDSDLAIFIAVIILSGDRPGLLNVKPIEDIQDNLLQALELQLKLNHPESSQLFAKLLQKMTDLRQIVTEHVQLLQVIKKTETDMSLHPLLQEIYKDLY
Assay: Transactivation of GAL4-tagged human PPARgamma LBD expressed in human HepG2 cells at 100 nM to 100 uM incubated for 20 to 22 hrs by luciferase reporter gene assay
Recorded Endpoint: pEC50
// scale note: pEC50 = -log10(conc_M); give the bare number

Looking up CC(C)(Oc1ccc(OCCc2ccc(/N=N/c3ccccc3)cc2)cc1)C(=O)O , I see its pEC50 listed as 5.22

* * *

Biological target: Peroxisome proliferator-activated receptor delta (Homo sapiens) (UniProt Q03181)
Sequence (Q03181 whole entry, the tested form may be a part): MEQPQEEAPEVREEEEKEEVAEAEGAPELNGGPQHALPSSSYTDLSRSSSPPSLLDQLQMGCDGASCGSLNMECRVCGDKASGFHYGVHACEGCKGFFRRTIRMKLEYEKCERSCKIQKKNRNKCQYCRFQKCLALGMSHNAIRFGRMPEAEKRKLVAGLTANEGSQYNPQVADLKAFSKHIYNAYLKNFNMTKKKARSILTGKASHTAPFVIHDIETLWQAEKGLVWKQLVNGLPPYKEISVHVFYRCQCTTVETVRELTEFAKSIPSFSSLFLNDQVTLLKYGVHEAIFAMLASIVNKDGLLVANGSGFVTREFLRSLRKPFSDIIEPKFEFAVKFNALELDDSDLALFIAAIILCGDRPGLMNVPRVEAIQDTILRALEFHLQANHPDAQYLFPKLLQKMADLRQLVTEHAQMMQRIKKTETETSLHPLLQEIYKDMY
Assay: Transactivation of GAL4-tagged human PPARdelta LBD expressed in human HepG2 cells at 100 nM to 100 uM incubated for 20 to 22 hrs by luciferase reporter gene assay relative to L165,041
Format: cell-based
# key: entry, value: Emax
Give the value in % but do not write % after it.

CC(C)(Oc1ccc(CCOc2ccc(/N=N/c3ccc(C#N)cc3)cc2)cc1)C(=O)O = 20
CC(C)(Oc1ccc(CCOc2ccc(/N=N/c3ccccc3)cc2)cc1)C(=O)O = 39
CC(C)(Oc1ccc(CCOc2ccc(/N=N/c3ccc(C(F)(F)F)cc3)cc2)cc1)C(=O)O = 24

Looking up CC(C)(Oc1ccc(OCCc2ccc(/N=N/c3ccc([N+](=O)[O-])cc3)cc2)cc1)C(=O)O , I see its Emax listed as 28

Looking up CC(C)(Oc1ccc(CCOc2ccc(/N=N/c3ccc([N+](=O)[O-])cc3)cc2)cc1)C(=O)O , I see its Emax listed as 21

Looking up CC(C)(Oc1ccc(OCCc2ccc(/N=N/c3ccc(Br)cc3)cc2)cc1)C(=O)O , I see its Emax listed as 29

Looking up CC(C)(Oc1ccc(OCCc2ccc(/N=N/c3ccc(C#N)cc3)cc2)cc1)C(=O)O , I see its Emax listed as 50

Looking up CC(C)(Oc1ccc(OCCc2ccc(/N=N/c3ccc(Cl)cc3)cc2)cc1)C(=O)O , I see its Emax listed as 41

Looking up CC(C)(Oc1ccc(CCOc2ccc(/N=N/c3ccc(Br)cc3)cc2)cc1)C(=O)O , I see its Emax listed as 29

Looking up COc1ccc(/N=N/c2ccc(OCCc3ccc(OC(C)(C)C(=O)O)cc3)cc2)cc1 , I see its Emax listed as 23

Looking up CC(C)(Oc1ccc(OCCc2ccc(/N=N/c3ccccc3)cc2)cc1)C(=O)O , I see its Emax listed as 35

Looking up CC(C)(Oc1ccc(CCOc2ccc(/N=N/c3ccc(Cl)cc3)cc2)cc1)C(=O)O , I see its Emax listed as 23

Looking up CC(C)(Oc1ccc(OCCc2ccc(/N=N/c3ccc(C(F)(F)F)cc3)cc2)cc1)C(=O)O , I see its Emax listed as 12

* * *

Molecular target: Peroxisome proliferator-activated receptor gamma (Homo sapiens)
Experiment: Transactivation of GAL4-tagged human PPARgamma LBD expressed in human HepG2 cells at 100 nM to 100 uM incubated for 20 to 22 hrs by luciferase reporter gene assay relative to rosiglitazone
Format: cell-based
Recorded Endpoint: Emax (%)
Give the value in % but do not write % after it.

Before answering, review these 3 worked examples.
CC(C)(Oc1ccc(OCCc2ccc(/N=N/c3ccc([N+](=O)[O-])cc3)cc2)cc1)C(=O)O = 10
CC(C)(Oc1ccc(OCCc2ccc(/N=N/c3ccc(Cl)cc3)cc2)cc1)C(=O)O = 10
COc1ccc(/N=N/c2ccc(OCCc3ccc(OC(C)(C)C(=O)O)cc3)cc2)cc1 = 10

Now for a further compound.
Looking up CC(C)(Oc1ccc(CCOc2ccc(/N=N/c3ccccc3)cc2)cc1)C(=O)O , I see its Emax listed as 13

* * *

Molecular target: Peroxisome proliferator-activated receptor alpha (Homo sapiens) (UniProt Q07869)
Test: Transactivation of GAL4-tagged human PPARalpha LBD expressed in human HepG2 cells at 100 nM to 100 uM incubated for 20 to 22 hrs by luciferase reporter gene assay relative to clofibric acid
Format: cell-based
# key: entry, value: Emax
Give the value in % but do not write % after it.

Before answering, review these 2 worked examples.
CC(C)(Oc1ccc(OCCc2ccc(/N=N/c3ccc([N+](=O)[O-])cc3)cc2)cc1)C(=O)O = 19
CC(C)(Oc1ccc(OCCc2ccc(/N=N/c3ccc(Cl)cc3)cc2)cc1)C(=O)O = 52

Now for a further molecule.
Looking up CC(C)(Oc1ccc(CCOc2ccc(/N=N/c3ccc(C(F)(F)F)cc3)cc2)cc1)C(=O)O , I see its Emax listed as 35
